# protocol_notes: stability in organic solvents and under fermentation condition (HPLC, 1H NMR)
# Assay type: physicochemical
# measurement_setup: in CHCl3, DMSO, MeOH, and MeOH-H2O at 25° C. for 90 days
parameter: change of solutions upon HPLC and 1H NMR analyses

[[record]]
molecule = "CO[C@@H](/C=C/CC/C=C/C(=O)O)[C@@H](O)[C@H](C)/C=C(\\C)[C@@H](O)[C@H](C)C(=O)CCCC1CC(=O)NC(=O)C1 [Compound 5, 13-epi-Dorrigocin A]"
result = "no detectable change"

[[record]]
molecule = "CO[C@@H](/C=C/CC/C=C/C(=O)O)[C@@H](O)[C@H](C)[C@@H](O)/C(C)=C/[C@H](C)C(=O)CCCC1CC(=O)NC(=O)C1"
result = "no detectable change"

[[record]]
molecule = "CO[C@@H](/C=C/CC/C=C/C(=O)O)[C@@H](O)[C@H](C)/C=C(\\C)[C@H](O)[C@H](C)C(=O)CCCC1CC(=O)NC(=O)C1"
result = "no detectable change"

[[record]]
molecule = "CO[C@H]1/C=C/CC/C=C/C(=O)O[C@H]([C@H](C)C(=O)CCCC2CC(=O)NC(=O)C2)/C(C)=C\\[C@@H](C)[C@@H]1O"
result = "no detectable change"

